- assayed-system: FAAH (Homo sapiens (Human), UniProt O00519)
- Sequence (O00519 whole entry): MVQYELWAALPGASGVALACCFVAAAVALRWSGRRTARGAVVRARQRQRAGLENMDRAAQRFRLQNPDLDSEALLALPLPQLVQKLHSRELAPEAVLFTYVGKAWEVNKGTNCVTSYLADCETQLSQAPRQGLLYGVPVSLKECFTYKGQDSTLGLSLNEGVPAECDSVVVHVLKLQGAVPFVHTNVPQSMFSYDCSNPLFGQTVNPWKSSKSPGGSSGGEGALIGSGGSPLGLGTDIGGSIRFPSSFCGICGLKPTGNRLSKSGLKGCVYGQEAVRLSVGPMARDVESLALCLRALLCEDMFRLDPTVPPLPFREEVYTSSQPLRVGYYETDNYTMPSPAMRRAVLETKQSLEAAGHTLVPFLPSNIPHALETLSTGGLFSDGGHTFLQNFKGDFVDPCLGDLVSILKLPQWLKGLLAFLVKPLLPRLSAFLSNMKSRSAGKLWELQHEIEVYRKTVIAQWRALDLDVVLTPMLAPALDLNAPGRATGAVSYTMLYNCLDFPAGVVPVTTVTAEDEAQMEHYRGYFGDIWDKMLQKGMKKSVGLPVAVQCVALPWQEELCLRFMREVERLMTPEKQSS
- measurement-notes: FAAH activity: hydrolysis of [3H]-AEA in U937 cell homogenates
- Format: biochemical
- condition-notes: Table 4; U937 cell homogenate; read-out: FAAH inhibition IC50
pIC50: −log10 of the molar value.
observed-property: pIC50

compound-smiles: CCCN1C(=O)/C(=C/c2ccc(N(C)C)cc2)S/C1=N\c1ccccc1
result: 5.98

compound-smiles: COc1cc(/C=C2\S/C(=N\c3ccc(C)cc3)N(c3ccc(C)cc3)C2=O)ccc1O
result: 5.27

compound-smiles: CN(C)c1ccc(/C=C2\S/C(=N\c3ccccc3)N(C3CCCCC3)C2=O)cc1
result: 6.01

compound-smiles: O=C1/C(=C/c2cc(Cl)c(O)c(Cl)c2)S/C(=N\c2ccccc2)N1Cc1ccco1
result: 4.22
